test system: S. aureus ATCC 29213 (HAV#001); assay: MIC by broth microdilution (CLSI); format: cell-based; conditions: Staphylococcus aureus, ATCC29213, 24 h, HAV#001, ATCC 29213; CaMHB, 24 h incubation; read-out: MIC S. aureus ATCC 29213
Structures can show the parent of a compound that is named as a salt.
Measured Property: MIC

Some entries whose results are on file:
Compound | Target Desc | Measured Property | Experimental Value
CC(C)C[C@@H]1CCO[C@@H]2[C@H](CN[C@@H]2C(=O)N[C@@H]2C/C=C\[C@@H](CN3CCOCC3)CS[C@H]3O[C@H]2[C@H](O)[C@H](O)[C@H]3O)C1 [FSA1608036, formate salt] | S. aureus ATCC 29213 (HAV#001) | MIC | 0.5 µg/mL
CC(C)C[C@@H]1CCO[C@@H]2[C@H](CN[C@@H]2C(=O)N[C@H]2[C@H]3O[C@H](SCCCC/C=C/[C@H]2C)[C@H](O)[C@@H](O)[C@H]3O)C1 [FSA1610016] | S. aureus ATCC 29213 (HAV#001) | MIC | 0.125 µg/mL
CC(C)C[C@@H]1CCO[C@@H]2[C@H](CN[C@@H]2C(=O)N[C@@H]2C/C=C/[C@H](O)CS[C@H]3O[C@H]2[C@H](O)[C@H](O)[C@H]3O)C1 [FSA1608009, formate salt] | S. aureus ATCC 29213 (HAV#001) | MIC | 32 µg/mL
CC(C)C[C@@H]1CCO[C@@H]2[C@H](CN[C@@H]2C(=O)N[C@@H]2C/C=C/[C@H](CO)CSC3O[C@H]2C(O)C(O)[C@H]3O)C1 (single isomer, unassigned) [FSA1608025B, formate salt] | S. aureus ATCC 29213 (HAV#001) | MIC | 32 µg/mL

Moving on to the next compound.
Qu. Could you share which MIC value was measured for CC(C)C[C@@H]1CCO[C@@H]2[C@H](CN[C@@H]2C(=O)N[C@@H]2CC/C=C\CSC3OC2C(O)C(O)C3O)C1 (some centres unmarked) [FSA1503055, formate salt] ?
Ans. 0.5 µg/mL
